Task for the reader: assign each of the following molecules its reported Solubility.
assayInfo: Solubility in PBS
Type: physicochemical
experimentalParameters: Solubility (uM)
Give bare numbers, in µM.

molecule="CC(=O)N1CCC[C@]12CC=CCCCC1(CCCC=CCCCOC(=O)N3CC[C@@](C(=O)N[C@@H](Cc4ccsc4)C(=O)N[C@@H](Cc4csc5ccccc45)C(=O)N[C@@H](CCC(N)=O)C(N)=O)(C3)NC(=O)[C@H](CC(N)=O)NC(=O)[C@H](Cc3ccccc3)NC(=O)[C@H](C)NC(=O)[C@H](C)NC(=O)[C@H](CCCNC(N)=O)NC(=O)[C@H](CC(=O)O)NC1=O)NC(=O)[C@H](CC(C)(C)C)NC(=O)[C@H](CC(=O)O)NC2=O (some centres unmarked) [I-840]" measuredquantity=Solubility unitlabel=µM numericresult=32
molecule="COc1cccc(C[C@@H]2NC(=O)[C@H](C)NC(=O)[C@H](C)NC(=O)[C@H](CC(=O)O)NC(=O)[C@H](CC(=O)O)NC(=O)C3(CCCC=CCCCOC(=O)N4CC[C@@](C(=O)N[C@@H](Cc5ccccc5Cl)C(=O)N[C@@H](Cc5csc6ccccc56)C(=O)N[C@@H](CCC(N)=O)C(N)=O)(C4)NC(=O)[C@H](CC(C)C)NC2=O)CCCC=CC[C@]2(CCCN2C(C)=O)C(=O)N[C@@H](CC(=O)O)C(=O)N[C@@H](CC(C)(C)C)C(=O)N3)c1 (some centres unmarked) [I-1121]" measuredquantity=Solubility unitlabel=µM numericresult=41
molecule="CC(=O)N1CCC[C@]12CC=CCCCC1(CCCC=CCCCOC(=O)N3CC[C@@](C(=O)N[C@@H](Cc4ccsc4)C(=O)N[C@@H](Cc4csc5ccccc45)C(=O)N[C@@H](Cc4c[nH]cn4)C(N)=O)(C3)NC(=O)[C@H](CC(N)=O)NC(=O)[C@H](Cc3ccccc3)NC(=O)[C@H](C)NC(=O)[C@H](C)NC(=O)[C@H](CC(N)=O)NC(=O)[C@H](CC(=O)O)NC1=O)NC(=O)[C@H](CC(C)(C)C)NC(=O)[C@H](CC(=O)O)NC2=O (some centres unmarked) [I-837]" measuredquantity=Solubility unitlabel=µM numericresult=14
molecule="CC[C@H](C)[C@@H]1NC(=O)[C@H](CC(=O)O)NC(=O)[C@]2(CC=CCCCC3(CCCC=CCCCCCC[C@@](C)(C(=O)N[C@@H](Cc4ccccc4)C(=O)N[C@@H](Cc4csc5ccccc45)C(=O)N[C@@H](Cc4c[nH]cn4)C(N)=O)NC(=O)[C@H](CCC(N)=O)NC(=O)[C@H](Cc4ccccc4)NC(=O)[C@H](C)NC(=O)[C@H](C)NC(=O)[C@H](CN(CC(=O)O)CC(F)(F)F)NC(=O)[C@H](CC(=O)O)NC3=O)NC1=O)CCCN2C(C)=O (some centres unmarked) [I-500]" measuredquantity=Solubility unitlabel=µM numericresult=28

Please find the next molecule below.
The reported value for CC(=O)N1CCC[C@]12CC=CCCCC1(CCCC=CCCCOC(=O)N3CC[C@@](C(=O)N[C@@H](Cc4ccccc4Cl)C(=O)N[C@@H](Cc4csc5ccccc45)C(=O)N[C@@H](C(N)=O)[C@H](C)O)(C3)NC(=O)[C@H](CC(N)=O)NC(=O)[C@H](Cc3ccccc3)NC(=O)[C@H](C)NC(=O)[C@H](C)NC(=O)[C@H](CC(=O)O)NC(=O)[C@H](CCC(=O)O)NC1=O)NC(=O)[C@H](CC(C)(C)C)NC(=O)[C@H](CC(=O)O)NC2=O (some centres unmarked) [I-1030] in terms of Solubility is 47
